Tested on: XF498
assay_explanation: NCI tumour cell line growth inhibition, 48 h
The source made the active and inactive calls. Cut-off read from the data, not from the text of the source: active = GI50 up to about 1.1 µM and inactive = higher.
Thanks in advance; please answer with one of these: True for active, False for inactive

Before answering, review these 8 worked examples.
FC(F)(F)C1=NC(=NNc2nnc(-c3ccccc3)c(-c3ccccc3)n2)N=C(C(F)(F)F)C1: False
CCN(CC)CCC1(C2CCCCC2)CCC(=O)NC1=O (centres undefined): False
OCc1ccc(-c2ccc(-c3ccc(CO)s3)o2)s1: True
O=C1CSC(C(/N=N/c2ccccc2)=C2Nc3ccccc3N2)=N1: False
CC1[C@@]2(CCC(C)(C)O2)O[C@@H]2C=C3C4CCC5Cc6nc7c(nc6C[C@@]5(C)C4C[C@H](O)[C@@]3(C)[C@]12O)CC1CCC2C3=C[C@H]4O[C@@]5(O[C@@](C)(CO)C[C@@H]5O)C(C)[C@@]4(O)[C@]3(C)[C@@H](O)CC2[C@]1(C)C7 (some centres undefined): True
COc1cc2c[n+](C)c3c4cc5c(cc4ccc3c2cc1OC)OCO5 [NITIDINE CHLORIDE]: False
Cc1ccccc1NC(=O)CC(=O)NNCC(=O)Nc1nnc(-c2ccccc2)s1: False
CC1(C)CCC(Sc2ccccc2)O1 (centres undefined): False

INPUT: # outcome recorded in this test, key = Cn1nc(-c2ccccc2)c2c(/C=C/c3ccc(F)cc3)onc2c1=O
OUTPUT: False
